Numbers sourced from patent US20240301052A1.

Biological target: T1, human SLC34A2 (human, UniProt O95436 1-690)
T1 sequence (looked up): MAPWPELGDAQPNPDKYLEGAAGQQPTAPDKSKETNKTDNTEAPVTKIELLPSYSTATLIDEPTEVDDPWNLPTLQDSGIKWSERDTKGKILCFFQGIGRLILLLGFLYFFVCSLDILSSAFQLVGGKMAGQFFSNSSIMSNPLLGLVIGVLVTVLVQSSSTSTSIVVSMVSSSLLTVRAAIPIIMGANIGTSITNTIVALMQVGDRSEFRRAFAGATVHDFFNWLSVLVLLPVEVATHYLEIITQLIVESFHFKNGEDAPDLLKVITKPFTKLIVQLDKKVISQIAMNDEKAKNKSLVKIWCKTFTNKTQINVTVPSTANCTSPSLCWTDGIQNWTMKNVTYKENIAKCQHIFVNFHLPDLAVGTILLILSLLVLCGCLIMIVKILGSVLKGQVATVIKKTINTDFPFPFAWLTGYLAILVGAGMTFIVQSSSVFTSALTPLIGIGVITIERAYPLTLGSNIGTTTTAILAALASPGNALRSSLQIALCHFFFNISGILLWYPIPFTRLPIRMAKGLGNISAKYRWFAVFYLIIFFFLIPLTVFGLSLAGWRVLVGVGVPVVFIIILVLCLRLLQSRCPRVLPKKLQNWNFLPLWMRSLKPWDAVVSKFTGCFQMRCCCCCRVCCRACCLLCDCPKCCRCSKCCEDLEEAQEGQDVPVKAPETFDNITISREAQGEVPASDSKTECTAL
Assay: cell-based or functional assay
# ADCC reporter Top (MFI) listing for each entry below
Please state the figure in MFI; there is no need to write the unit.

Reference set, count: 4
63A11D5B4.p1.z5 hIgG1 (antibody, V domains shown, humanized hIgG1) VH: QVQLVQSGAEVKKPGASVKVSCKTSGYTFITYNMHWVRQAPGQGLEWIGAIYPGSGDTSYNQKFKGRVTMTADTSTSTVYMELSSLRSEDTAVYYCSISTIITTGAVDYWGQGTLVTVSS VL: DIQMTQSPSSLSASVGDRVTITCKASQDVGTAVAWYQQKPGKVPKLLIYWTSTRHTGVPSRFSGSGSGTDFTLTISSLQPEDVATYYCQQYSRIPLTFGGGTKVEIK ... 116000
xi62G10E4G8 hIgG1 (antibody, V domains shown, chimeric, hIgG1) VH: QVQLQQSGAEVVKPGASVKMSCKASGYTFPSYITHWVKQTPGQGLEWIGAIYPGNGDTSYIQKFKGKATLTADKSSSTAYMQLSSLTSEDSAVYYCARGTYGTSAWFTYWGQGTLVTVSA VL: DIVLTQSPATLSVTPGDSVSLSCRARQNIGNNLYWYQQKSHESPRLLIKYASQSISGIPSRFSGSGSGTDFTLTINSVETEDFGVYFCQQSFSWPLTFGAGTKLELK ... 101000
xi30H9B8F9 hIgG1 (antibody, V domains shown, chimeric, hIgG1) VH: QVQLQQPGAELVKPGASVKMSCKTSGYTFTTNNMHWVKQTPGQGLEWIGAIYPGNGATAYNQKFKGKATLTADKSSSTAYMQLSSLTSEASAVYYCARGMYGHGAMDYWGQGTSVIVSS VL: DIVMTQSHKFMSRSVGDRVRITCKASQDVGTAVAWYQQKPGQSPKLLIYWATTRHSGVPDRFTGSGSGTDFIFTISNVQSEDLADYFCQQYSSNPLTFGAGTKLELK ... 109000
91C9F1.p1.z7 hIgG1 (antibody, V domains shown, humanized hIgG1) VH: QVQLVQSGAEVKKPGSSVKVSCKTSGFFFTEYIIHWVRQAPGQGLEWIGGIIPNNDVTNYKQNFRGRVTLTADKSTSTAYMELSSLRSEDTAVYYCARWRNAYYSAMDSWGQGTTVTVSS VL: DIQVTQSPSSLSTSVGDRVTITCTASQDVGTAVAWYQQKPGKSPKLLIYWASTRHTGVPERFTGSGSGTDFTLTISSVQPEDVATYFCQQYRTSPLTFGVGTKVEIK ... 124000

Tell me its ADCC reporter Top (MFI) given 63A11D5B4.p1.z9 hIgG1 (antibody, V domains shown, humanized hIgG1) VH: QVQLVQSGAEVVKPGASVKMSCKTSGYTFITYNMHWVRQAPGQGLEWIGAIYPGSGDTSYNQKFKGRVTLTADKSTSTAYMELSSLRSEDTAVYYCSISTIITTGAVDYWGQGTLVTVSS VL: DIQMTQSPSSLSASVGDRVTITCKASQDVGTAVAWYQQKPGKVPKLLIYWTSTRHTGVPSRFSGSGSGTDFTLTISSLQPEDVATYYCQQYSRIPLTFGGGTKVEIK as the entry.
116000

Tell me its ADCC reporter Top (MFI) given 30H9B8F9.p1.z6 hIgG1 (antibody, V domains shown, humanized hIgG1) VH: QVQLVQSGAEVKKPGASVKVSCKTSGYTFTTNNMHWVRQAPGQGLEWIGAIYPGSGATAYNQKFKGRVTMTADTSTSTVYMELSSLRSEDTAVYYCARGMYGHGAMDYWGQGTLVTVSS VL: DIQLTQSPSFLSASVGDRVTITCKASQDVGTAVAWYQQKPGKSPKLLIYWATTRHSGVPDRFSGSGSGTEFTFTISSLQPEDFATYFCQQYSSNPLTFGQGTKLEIK as the entry.
135000

Tell me its ADCC reporter Top (MFI) given 62G10E4G8 VH_P3/VL hIgG1 (antibody, V domains shown, PTM-derisked chimeric, hIgG1; that P3 is the NA version follows from the humanized .p3 chains; also called 62G10E4G8.p3 hIgG1) VH: QVQLQQSGAEVVKPGASVKMSCKASGYTFPSYITHWVKQTPGQGLEWIGAIYPGNADTSYIQKFKGKATLTADKSSSTAYMQLSSLTSEDSAVYYCARGTYGTSAWFTYWGQGTLVTVSA VL: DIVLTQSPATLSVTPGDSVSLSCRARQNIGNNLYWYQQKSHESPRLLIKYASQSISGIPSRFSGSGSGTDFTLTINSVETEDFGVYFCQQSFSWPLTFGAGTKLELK as the entry.
122000

Tell me its ADCC reporter Top (MFI) given xi91C9F1 hIgG1 (antibody, V domains shown, chimeric, hIgG1) VH: EVQLQQSGPELVKPGTSVKISCKTSGFFFTEYIIHWVKQSHGRSLEWIGGIIPNNGVTNYKQNFRGKAALTADKSSNTAYMELRSLTSEDSAVYYCARWRNGYYSAMDSWGQGTSVTVSS VL: DIVVTQSHKFMSTSLGDRVSITCTASQDVGTAVAWYQQKPGHSPKLLIYWASTRHTGVPERFTGSGSGTDFTLTITNVQSEDLADYFCQQYRTSPLTFGVGTKLELK as the entry.
133000

Tell me its ADCC reporter Top (MFI) given 30H9B8F9.p1.z13 hIgG1 (antibody, V domains shown, humanized hIgG1) VH: QVQLVQSGAEVVKPGASVKMSCKTSGYTFTTNNMHWVKQAPGQGLEWIGAIYPGSGATAYNQKFKGRATLTADKSTSTAYMELSSLRSEATAVYYCARGMYGHGAMDYWGQGTSVTVSS VL: DIQLTQSPSFLSASVGDRVTITCKASQDVGTAVAWYQQKPGKAPKLLIYWATTRHSGVPSRFSGSGSGTEFTLTISSLQPEDFATYYCQQYSSNPLTFGQGTKLEIK as the entry.
143000

Tell me its ADCC reporter Top (MFI) given 62G10E4G8.p3.z11 hIgG1 (antibody, V domains shown, humanized hIgG1) VH: QVQLVQSGAEVKKPGASVKVSCKASGYTFPSYITHWVKQAPGQGLEWIGAIYPGNADTSYIQKFKGRVTLTADKSTSTAYMELSSLRSEDTAVYYCARGTYGTSAWFTYWGQGTLVTVSS VL: EIVLTQSPATLSVSPGERATLSCRARQNIGNNLYWYQQKPGQSPRLLIKYASQSISGIPSRFSGSGSGTDFTLTISSLQSEDFAVYFCQQSFSWPLTFGQGTKLEIK as the entry.
116000
